Assay: Plasma and brain levels of the components by LC-MS/MS after 10 days of HFD containing the exemplary composition
Details: female, C57/BL6, mouse, in vivo
OBSERVED_PROPERTY: concentration at 10 days (nM)
One number for each entry, in nM.

Required: concentration at 10 days, one value per molecule below.
1. COc1ccc2cc3[n+](cc2c1OC)CCc1cc2c(cc1-3)OCO2 [Berberine]
2. O=C(O)CCCCC1CCSS1 (stereo not drawn) [Lipoic acid]
3. O=C(O)c1cccnc1 [Nicotinic acid]

Data returned:
[20.5, 68.2, 1360]

From: patent US12201624B2
